System: HEK-293T
Method: Multiplex assay against HEK293T
Type: toxicity, cell-based
Condition Parameters: human, 24 h, 1 µM, compound concentration 1 uM
Consider the following molecules and their measured Population Hoechst High Intensity Objects (%) readings.
The reply should be a number in %, with the unit left off.

Example entries and their recorded answers appear below.
CN(C)CCCn1cc(C2=C(c3c[nH]c4ccccc34)C(=O)NC2=O)c2ccccc21 | 0
O=C(Nc1cc(-c2ccccc2)nn1-c1ccccc1F)c1ccc([N+](=O)[O-])cc1 | 4

Let us examine a further case.
Problem: Form field: reported Population Hoechst High Intensity Objects (%) of "O=C(NCc1cccc(O)c1)Nc1nc(-c2ccncc2)cs1"
Result: 0

====

Consider the following molecules and their measured Population Hoechst High Intensity Objects (%) readings.
Test system: U2OS
Method: Multiplex assay against U2OS
Format: toxicity, cell-based
Condition Parameters: human, 24 h, 1 µM, compound concentration 1 uM
The reply should be a number in %, with the unit left off.

Example entries and their recorded answers appear below.
COc1ccc2[nH]c(I)c(CCNC(C)=O)c2c1 [IODOMELATONIN] | 1
OCCCNc1cc(-c2ccnc(Nc3cccc(Cl)c3)n2)ccn1 | 7

Problem: Look up Population Hoechst High Intensity Objects (%) with U2OS for this molecule: "O=C(NCc1cccc(O)c1)Nc1nc(-c2ccncc2)cs1"
Result: 0

====

Test system: U2OS
Method: Multiplex assay against U2OS
Format: toxicity, cell-based
Condition Parameters: human, 48 h, 1 µM, compound concentration 1 uM
Quantity Kind: Population Mitochondria Different-Phenotype (%)
The reply should be a number in %, with the unit left off.

Example entries and their recorded answers appear below.
COc1cc2nc(N3CCN(C(=O)COc4c(OC)cccc4C(C)C)CC3)nc(N)c2cc1OC.Cl.Cl | 6
Cc1ccc(-c2ccc(F)cc2COc2ccc(CCC(=O)O)cc2)cc1 | 2
COc1ccccc1N1CCN(CCCCNC(=O)c2ccc3ccccc3c2)CC1.Cl | 3
Cc1sc2c(c1C)C(c1ccc(Cl)cc1)=N[C@@H](CC(=O)NCCCCCCCCNC(=O)COc1cccc3c1C(=O)N(C1CCC(=O)NC1=O)C3=O)c1nnc(C)n1-2 (some centres not stated) | 1

Problem: Form field: reported Population Mitochondria Different-Phenotype (%) of CN(C)C/C=C/C(=O)Nc1ccc(C(=O)N2CCCC(Nc3ncc(Cl)c(-c4c[nH]c5ccccc45)n3)C2)cc1 (configuration not stated)
Result: 3

Problem: And then COc1ccc2[nH]c(I)c(CCNC(C)=O)c2c1 [IODOMELATONIN] , what is it?
Result: 2

Problem: And then CN1C[C@H](C(=O)N[C@]2(C)O[C@@]3(O)[C@@H]4CCCN4C(=O)[C@H](Cc4ccccc4)N3C2=O)C[C@@H]2c3cccc4[nH]cc(c34)C[C@H]21.CS(=O)(=O)O [DIHYDROERGOTAMINE MESYLATE] , what is it?
Result: 2

====

Consider the following compounds and their measured Population Hoechst High Intensity Objects (%) readings.
Tested on: U2OS
Method: Multiplex assay against U2OS
Type: toxicity, cell-based
Condition Parameters: human, 12 h, 1 µM, compound concentration 1 uM
The reply should be a number in %, with the unit left off.

O=C(Nc1cc(C(F)(F)F)ccc1N1CCCCC1)c1ccncc1 | 0
Cl.O=S(=O)(c1cccc2c(I)cccc12)N1CCCNCC1 | 0
C=CC(=O)Nc1cc(Nc2nccc(-n3cc(CN(C)C)c(-c4ccccc4)n3)n2)c(OC)cc1N1CCOCC1 | 0
Cc1ccc(-c2ccc(F)cc2COc2ccc(CCC(=O)O)cc2)cc1 | 2
Cc1cc(C)c(NC(=O)C2CC3CCC2C3)c(C)c1 (stereo unspecified) | 0

Let us examine a further case.
Problem: Form field: reported Population Hoechst High Intensity Objects (%) of Cc1[nH]nc2ccc(-c3cncc(OCC(N)Cc4c[nH]c5ccccc45)c3)cc12 (stereo unspecified)
Result: 0
